Test system: Proteus vulgaris HX 19
Protocol: Minimum Inhibitory Concentration, Proteus vulgaris HX 19
Assay type: cell-based
Measurement Parameters: HX19; Proteus vulgaris HX 19; read-out: Minimum Inhibitory Concentration
Property Name: MIC (µg/mL)

Below are worked cases with known answers.
CC(=O)OCC1=C(C(=O)O)N2C(=O)[C@@H](NC(=O)[C@H](NC(=O)c3cnc4nc(C)c(C)nc4c3O)c3ccc(NC(N)=O)cc3)[C@H]2SC1 [Example 35]: 0.39
CC(=O)OCC1=C(C(=O)O)N2C(=O)[C@@H](NC(=O)[C@H](NC(=O)c3cnccc3O)c3ccc(NC(N)=O)cc3)[C@H]2SC1 [Example 1]: 0.2
CN(C)c1ccc2ncc(C(=O)NC(C(=O)NC3C(=O)N4C(C(=O)O)=C(CSc5nnnn5C)CSC34)c3cccc(N)c3)c(O)c2n1 (stereo not drawn) [Example 74]: 0.1
O=C(O)C1=C(CSc2ccc(O)nn2)CSC2C(NC(=O)[C@H](NC(=O)c3cnc4cccnc4c3O)c3ccc(O)c(Cl)c3)C(=O)N12 (stereo partly drawn) [Example 149]: 0.39

1: Cn1nnnc1SCC1=C(C(=O)O)N2C(=O)C(NC(=O)[C@H](NC(=O)c3cnc4cncnc4c3O)c3ccc(O)cc3)C2SC1 (stereo partly drawn) [Example 154]
2: O=C(O)C1=C(CSc2ccc(O)nn2)CSC2C(NC(=O)C(NC(=O)c3cnccc3O)c3ccc(O)cc3)C(=O)N12 (stereo not drawn) [Example 177]
Ask: When the recorded MIC values are compared, which is smaller: that of 1 or that of 2 ? // respond with label for picked entry
Result: 2
(2: 0.2 µg/mL, 1: 0.39 µg/mL)
